# Tested on: Klebsiella aerogenes DSM 30053
# assay_remarks: fold change of Putrescine concentration vs plate DMSO controls (fold change (ratio)); higher = more amine produced, active = hit call of the paper (significant change in both replicates, either direction)
# test_context: incubation time: 27 h, anaerobic, 37 °C
Where a name gives a salt, the structure may show the parent alone.
reported_property: fold change of Putrescine concentration
Just the number, please, no unit attached.

>  <compound>
CN1CCN(CCCN2c3ccccc3Sc3ccc(S(=O)(=O)N(C)C)cc32)CC1 [Thioproperazine dimesylate] (20 µM)

>  <numeric_value>
0.976

$$$$
>  <compound>
COC(=O)Nc1nc2ccc(SC(C)C)cc2[nH]1 [Methiazole] (20 µM)

>  <numeric_value>
1.01

$$$$
>  <compound>
CNC[C@H](O)[C@@H](O)[C@H](O)[C@H](O)CO [Meglumine] (20 µM)

>  <numeric_value>
0.979

$$$$
>  <compound>
C[C@]12C=CC(=O)C=C1CC[C@@H]1[C@@H]2[C@@H](O)C[C@@]2(C)[C@H]1CC[C@]2(O)C(=O)CO [Prednisolone] (20 µM)

>  <numeric_value>
1

$$$$
>  <compound>
C[C@]12CCC(=O)C=C1CC[C@@H]1[C@@H]2C(=O)C[C@@]2(C)[C@H]1CC[C@]2(O)C(=O)CO [Cortisone] (20 µM)

>  <numeric_value>
1

$$$$

// fold change of Putrescine concentration value for O=C1c2cccc3c2[C@H](CCC3)CN1[C@@H]1CN2CCC1CC2 [Palonosetron hydrochloride] (20 µM) : 0.996

// fold change of Putrescine concentration value for C#C[C@]1(O)CC[C@H]2[C@@H]3CCC4=CCCC[C@@H]4[C@H]3CC[C@@]21C [Lynestrenol] (20 µM) : 1.02

// fold change of Putrescine concentration value for N[C@H](Cc1ccccc1)C(=O)O [D-phenylalanine] (20 µM) : 1.02

====

# Test system: Clostridium sporogenes DSM 1664
# assay_remarks: growth (OD595) fold change vs plate DMSO controls (fold change (ratio)); higher = more growth
# test_context: incubation time: 27 h, anaerobic, 37 °C
Where a name gives a salt, the structure may show the parent alone.
As shown below, each of these molecules has a reported growth value.
Just the number, please, no unit attached.

Consider the reported growth for these molecules:
>  <molecule>
NC(=O)OCC(COC(N)=O)c1ccccc1 [Felbamate] (20 µM)

>  <reported_property>
growth

>  <numeric_value>
1.07

$$$$
>  <molecule>
COC(=O)C1=C(C)NC(C)=C(C(=O)OCCN(C)Cc2ccccc2)C1c1cccc([N+](=O)[O-])c1 (centres undefined) [Nicardipine hydrochloride] (20 µM)

>  <reported_property>
growth

>  <numeric_value>
1.11

$$$$
>  <molecule>
CC(C)NCC(O)COc1cccc2[nH]ccc12 (centres undefined) [Pindolol] (20 µM)

>  <reported_property>
growth

>  <numeric_value>
1.03

$$$$

Observed growth, Clostridium sporogenes DSM 1664, C#CCN(C)CCCOc1ccc(Cl)cc1Cl [Clorgyline hydrochloride] (20 µM) : 1.02

====

# Test system: Klebsiella aerogenes DSM 30053
# assay_remarks: fold change of Cadaverine concentration vs plate DMSO controls (fold change (ratio)); higher = more amine produced, active = hit call of the paper (significant change in both replicates, either direction)
# test_context: incubation time: 27 h, anaerobic, 37 °C
Where a name gives a salt, the structure may show the parent alone.
reported_property: fold change of Cadaverine concentration
Just the number, please, no unit attached.

Consider the reported fold change of Cadaverine concentration for these compounds:
>  <compound>
CCN(CC)CCNC(=O)c1cc(Cl)c(N)cc1OC [Metoclopramide monohydrochloride] (20 µM)

>  <reported_property>
fold change of Cadaverine concentration

>  <numeric_value>
0.998

$$$$
>  <compound>
NS(=O)(=O)c1cc2c(cc1Cl)NCNS2(=O)=O [Hydrochlorothiazide] (20 µM)

>  <reported_property>
fold change of Cadaverine concentration

>  <numeric_value>
1.11

$$$$
>  <compound>
C=CC(N)CCC(=O)O (stereo unspecified) [Vigabatrin hydrochloride] (20 µM)

>  <reported_property>
fold change of Cadaverine concentration

>  <numeric_value>
1.03

$$$$
>  <compound>
COc1cc2/c(=N/c3ccc(Br)cc3F)nc[nH]c2cc1OCC1CCN(C)CC1 [Vandetanib] (20 µM)

>  <reported_property>
fold change of Cadaverine concentration

>  <numeric_value>
1.1

$$$$
>  <compound>
N[C@H]1CONC1=O [(S,-) Cycloserine] (20 µM)

>  <reported_property>
fold change of Cadaverine concentration

>  <numeric_value>
1.05

$$$$

// fold change of Cadaverine concentration value for C=C(C)[C@@H]1CC=C(/C=N/O)CC1 [Perillartine] (50 µM) : 1.02

// fold change of Cadaverine concentration value for CCOC(=O)C1=C[C@@H](OC(CC)CC)[C@H](NC(C)=O)[C@@H](N)C1 [Oseltamivir phosphate] (20 µM) : 1

// fold change of Cadaverine concentration value for COC(=O)Nc1nc2ccc(SC(C)C)cc2[nH]1 [Methiazole] (20 µM) : 1.02

// fold change of Cadaverine concentration value for CCc1cc(C(N)=S)ccn1 [Ethionamide] (20 µM) : 1.02

// fold change of Cadaverine concentration value for CC(C)c1c(C(=O)Nc2ccccc2)c(-c2ccccc2)c(-c2ccc(F)cc2)n1CC[C@@H](O)C[C@@H](O)CC(=O)O [Atorvastatin] (20 µM) : 0.998
